Molecular target: PDLIM1, O00151
Sequence (O00151 1-87): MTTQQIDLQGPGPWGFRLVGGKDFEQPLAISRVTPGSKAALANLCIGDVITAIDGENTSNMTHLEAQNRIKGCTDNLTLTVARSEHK
Assay: holdup assay
Design: key: below the threshold = too weak to quantify, mostly under pKd 3.1 to 4
Settings: plain residues with an end cap or a label only (N-terminal biotin on a linker: ado-ado)
Property label: pKd

| Binder | Property label | Observed result |
| --- | --- | --- |
| QKNKDREYYV [NRXN3, Q9HDB5] | pKd | below the threshold |
| KPDKQEEFYA [SDC3, O75056] | pKd | below the threshold |
| LLQEEWETVM [PTH1R, Q03431] | pKd | below the threshold |
| SRPHTNETSL [MCC, P23508] | pKd | below the threshold |
| AHGSTRDQSI [KCNB1, Q14721] | pKd | below the threshold |

Report measured pKd; entry is KAEEKPPSKV [SCN4B, Q8IWT1] below the threshold

Given the binder DAAHHDESNC [FMNL3, Q8IVF7] , write its reported pKd. below the threshold

Supply pKd value. Item: RDYTQSSSSL [GRM5, P41594] below the threshold

State its pKd for this binder: GDSSRKEYFI [GYPC, P04921] below the threshold

Note down pKd recorded for PSDSVGKDVF [EGLN1, Q9GZT9] below the threshold

Please give the documented pKd of WAKEKQHTRL [SLC17A1, Q14916] below the threshold

Specify measured pKd for ADEMICITTL [CACNA1D, Q01668] . below the threshold

Tell me pKd reported for THREVKFTSL [CD46, P15529] below the threshold

State its pKd for this binder: THHRKIHTRV [ZNF599, Q96NL3] below the threshold

Return value of pKd for input DLLGGGSDSI [TNRC6B, Q9UPQ9] , no commentary. below the threshold

Tell me its pKd given ELKAEDEVQI [DCHS2, Q6V1P9] as the entry. below the threshold
